# Assay procedure: Toxicokinetics in Beagle dogs, 7 day repeat oral administration
# Type: in vivo
# Condition details: female, Beagle, dog, plasma, po, 20 mg/kg, 20 mg/kg PO BID, Day7, Female, Subject 1
Reported endpoint: Cmax (ng/mL)
Numbers only, in ng/mL.

Exercise: Looking for the measured Cmax of CC(C)CN(c1ccc([C@H](C)CC(=O)O)cc1Nc1nnc(C2CC2)s1)C1CCOCC1 , can you help?
Solution: 3900

---

# System name: indoleamine 2, 3-dioxygenase (IDO1) (Homo sapiens)
# Sequence (P14902 whole entry): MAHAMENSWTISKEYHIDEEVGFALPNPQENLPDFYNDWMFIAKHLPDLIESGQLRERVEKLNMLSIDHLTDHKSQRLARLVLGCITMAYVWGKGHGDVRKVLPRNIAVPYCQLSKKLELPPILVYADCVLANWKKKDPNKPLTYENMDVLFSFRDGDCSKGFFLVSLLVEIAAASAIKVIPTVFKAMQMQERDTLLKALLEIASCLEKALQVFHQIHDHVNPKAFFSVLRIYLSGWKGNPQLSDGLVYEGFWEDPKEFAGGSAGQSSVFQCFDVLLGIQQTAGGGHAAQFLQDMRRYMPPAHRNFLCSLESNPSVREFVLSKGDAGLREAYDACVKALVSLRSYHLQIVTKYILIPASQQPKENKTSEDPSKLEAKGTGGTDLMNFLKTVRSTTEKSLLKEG
# Assay procedure: IDO1 HeLa RapidFire MS assay (kynurenine detection by mass spectrometry)
# Assay type: cell-based
# Set-up: to induce the expression of indoleamine 2, 3-dioxygenase (IDO1)
# Condition details: HeLa cells, pIC50, read-out: IDO1_HELA_PXC50 (converted)
Simple rule here: IC50 less than 1 µM is label 1, otherwise label 0.

Exercise: Given CC(C)CN(CC(C)C)c1ccc(C(C)CC(=O)O)cc1Nc1ccc(C(N)=O)cn1 (centres unmarked) , is recorded IC50 strictly lower than 1 µM?
Solution: label 0

Exercise: Given CC(C)CN(CC(C)C)c1ccc(C(C)CC(=O)O)cc1Nc1nc2c(s1)CCCC2 (centres unmarked) , is recorded IC50 strictly lower than 1 µM?
Solution: label 1

Exercise: Given CC(C)CN(CC(C)C)c1ccc(C(C)CC(=O)O)cc1Nc1nc(N2CCCC2)ns1.O=C(O)C(F)(F)F (centres unmarked) , is recorded IC50 strictly lower than 1 µM?
Solution: label 0
